From: paper PMC13372822

Biological target: SUCR1 mutants (variant named in the endpoint) (Homo sapiens, UniProt Q9BXA5, Y248F)
Construct: The full-length human SUCR1 and mutations were fused after the HA signal peptide and Flag tag; HA signal peptide (N); Flag (N)
Sequence (Q9BXA5 whole entry Y248F, the tested form may be a part): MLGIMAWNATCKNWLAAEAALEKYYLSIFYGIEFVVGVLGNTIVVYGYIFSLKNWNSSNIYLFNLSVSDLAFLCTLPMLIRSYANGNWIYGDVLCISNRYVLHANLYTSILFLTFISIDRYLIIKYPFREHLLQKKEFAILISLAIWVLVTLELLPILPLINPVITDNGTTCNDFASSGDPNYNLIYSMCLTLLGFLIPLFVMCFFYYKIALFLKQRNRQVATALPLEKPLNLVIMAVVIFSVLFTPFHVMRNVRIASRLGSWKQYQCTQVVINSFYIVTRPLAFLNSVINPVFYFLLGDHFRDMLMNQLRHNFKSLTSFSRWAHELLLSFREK
Assay: Calcium mobilization assay, SUCR1 mutants in HEK293 stably expressing Gα16
Details: SUCR1 Y248F
Outcome Measure: EC50 (µM)

Molecule | Number
O=C(O)CCC(=O)O [SUC, succinate] | 810

###

Tested on: OXGR1 mutants (variant named in the endpoint)
Test: Calcium mobilization assay, OXGR1 mutants in HEK293;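 further: human OXGR1 variants transiently expressed in HEK293 cells, with intracellular calcium read out by Fluo-4 AM fluorescence, measured 24 h after transfection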
Conditions: OXGR1 F130E

Compound | EC50
C=C(CC(=O)O)C(=O)O [ITA, itaconate] | > 1 mM
